Data provenance: patent US20260226071A1

Target: Aurora kinase A (AURKA) (Homo sapiens)
Construct: endogenous in cells; host or cells: HeLa LgBit (AURKA-HiBit KI), CRISPR/Cas9 knock-in at the endogenous AURKA locus
Sequence (O14965 1-403): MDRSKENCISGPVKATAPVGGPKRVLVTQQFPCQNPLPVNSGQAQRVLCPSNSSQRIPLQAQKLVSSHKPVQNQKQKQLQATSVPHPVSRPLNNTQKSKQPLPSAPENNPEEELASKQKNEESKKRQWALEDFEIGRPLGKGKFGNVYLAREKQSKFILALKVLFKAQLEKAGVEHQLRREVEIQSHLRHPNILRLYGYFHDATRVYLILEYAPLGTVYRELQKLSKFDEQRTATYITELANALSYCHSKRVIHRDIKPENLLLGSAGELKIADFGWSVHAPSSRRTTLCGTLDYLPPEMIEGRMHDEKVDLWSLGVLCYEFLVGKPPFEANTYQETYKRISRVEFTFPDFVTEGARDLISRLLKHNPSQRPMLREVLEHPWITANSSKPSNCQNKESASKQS
Assay: Luciferase assay for AURKA in HeLa LgBit (AURKA-HiBit KI) cell line
Type: cell-based
Conditions: 10 nM compound, HeLa LgBit (AURKA-HiBit KI) cells, measured after 12 hours
endpoint: luminescence value (Level)

O=C1CCC(c2ccc(N3CCN(CCC4CCN(C(=O)Nc5ccc(Nc6ncc(F)c(Nc7ccc(C(=O)Nc8ccccc8Cl)cc7)n6)cc5)CC4)CC3)cc2)C(=O)N1 (centres unmarked); B (B is 0.3 to 0.5)
O=C1CCC(c2ccc(N3CCC(CN4CCC(CNC(=O)c5ccc(Nc6ncc(F)c(Nc7ccc(C(=O)Nc8ccccc8Cl)cc7)n6)cc5)CC4)CC3)cc2)C(=O)N1 (centres unmarked); B (B is 0.3 to 0.5)
